Hello, the source for this data is patent US8822517B2, in case you need it.

target: serotonine transporter (SERT) receptor (Homo sapiens, UniProt P31645); construct: expressed in transfected cells; host or cells: CHO cells; test: Binding assay SERT (h), [3H]imipramine, CHO cells; conditions: read-out: SERT [%]
Sequence (P31645 whole entry): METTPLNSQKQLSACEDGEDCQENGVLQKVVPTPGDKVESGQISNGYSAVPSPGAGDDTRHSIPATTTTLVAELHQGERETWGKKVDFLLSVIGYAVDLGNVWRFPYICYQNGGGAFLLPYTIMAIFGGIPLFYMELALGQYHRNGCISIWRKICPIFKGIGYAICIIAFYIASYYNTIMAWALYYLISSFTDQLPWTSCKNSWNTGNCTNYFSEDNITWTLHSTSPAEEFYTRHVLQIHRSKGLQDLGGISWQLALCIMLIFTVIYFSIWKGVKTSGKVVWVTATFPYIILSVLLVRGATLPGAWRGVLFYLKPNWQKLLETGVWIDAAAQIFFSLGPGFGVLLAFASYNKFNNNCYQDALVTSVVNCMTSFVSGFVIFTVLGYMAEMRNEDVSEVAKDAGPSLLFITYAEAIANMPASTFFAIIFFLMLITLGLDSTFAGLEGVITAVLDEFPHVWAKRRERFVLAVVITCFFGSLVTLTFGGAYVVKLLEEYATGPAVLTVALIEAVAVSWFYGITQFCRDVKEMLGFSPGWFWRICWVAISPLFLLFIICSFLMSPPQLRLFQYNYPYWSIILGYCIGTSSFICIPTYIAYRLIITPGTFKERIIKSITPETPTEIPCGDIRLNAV
Entries and their inhibition at 1 µM
readout: inhibition at 1 µM (%)

> print(dat)
                                 smiles.code                             target.entity  obs.value
 1  O=S(=O)(NCCCN1CCN(c2nsc3ccccc23)CC1)c1ccc(C(F)(F)F)cc1  serotonine transporter (SERT) receptor (Homo sapiens, UniProt P31645)         93
 2  Cc1c(S(=O)(=O)NCCCN2CCC(c3noc4cc(F)ccc34)CC2)sc2ccc(F)cc12  serotonine transporter (SERT) receptor (Homo sapiens, UniProt P31645)         38
 3  O=S(=O)(NCCCN1CCC(c2noc3cc(F)ccc23)CC1)c1ccc(-c2ccccc2)cc1  serotonine transporter (SERT) receptor (Homo sapiens, UniProt P31645)        -17
 4  O=S(=O)(NCCCCN1CCN(c2nsc3ccccc23)CC1)c1ccc2cn[nH]c2c1  serotonine transporter (SERT) receptor (Homo sapiens, UniProt P31645)         19
 5  O=S(=O)(NCCCCN1CCN(c2cccc3c2OCCO3)CC1)c1cccc(O)c1  serotonine transporter (SERT) receptor (Homo sapiens, UniProt P31645)         -7
 6  O=S(=O)(NCCCN1CCN(c2cccc3c2OCCO3)CC1)c1cccc(Cl)c1  serotonine transporter (SERT) receptor (Homo sapiens, UniProt P31645)         12
 7  Cc1c(S(=O)(=O)NCCCCN2CCN(c3nsc4ccccc34)CC2)sc2ccc(F)cc12  serotonine transporter (SERT) receptor (Homo sapiens, UniProt P31645)         57
 8  O=C1Cc2cc(S(=O)(=O)NCCCCN3CCC(c4noc5cc(F)ccc45)CC3)ccc2N1  serotonine transporter (SERT) receptor (Homo sapiens, UniProt P31645)         37
 9  O=c1[nH]c2ccc(S(=O)(=O)NCCCCN3CCN(c4noc5ccccc45)CC3)cc2o1  serotonine transporter (SERT) receptor (Homo sapiens, UniProt P31645)         -3
10  O=S(=O)(NCCCN1CCN(c2cccc3c2OCCO3)CC1)c1ccc2cc(Cl)ccc2c1  serotonine transporter (SERT) receptor (Homo sapiens, UniProt P31645)         -2
11  O=S(=O)(NCCCCN1CCC(c2noc3cc(F)ccc23)CC1)c1c[nH]c2ncccc12  serotonine transporter (SERT) receptor (Homo sapiens, UniProt P31645)         41
12  O=S(=O)(NCCCCN1CCC(c2noc3cc(F)ccc23)CC1)c1ccc(Cl)s1  serotonine transporter (SERT) receptor (Homo sapiens, UniProt P31645)         28
13  Cc1[nH]c2ccc(Cl)cc2c1C1=CCN(CCCNS(=O)(=O)c2cccc3ccccc23)CC1  serotonine transporter (SERT) receptor (Homo sapiens, UniProt P31645)          1
14  O=S(=O)(NCCCCN1CCN(c2noc3ccccc23)CC1)c1cc2ccc(Cl)cc2s1  serotonine transporter (SERT) receptor (Homo sapiens, UniProt P31645)        -14
15  O=S(=O)(NCCCCN1CCN(c2cccc3[nH]ccc23)CC1)c1ccc2cc(Cl)ccc2c1  serotonine transporter (SERT) receptor (Homo sapiens, UniProt P31645)         40
16  O=S(=O)(NCCCCN1CCN(c2nsc3ccccc23)CC1)c1cnc2ccccn12  serotonine transporter (SERT) receptor (Homo sapiens, UniProt P31645)         31
17  N#Cc1ccc(S(=O)(=O)NCCCN2CCC(c3noc4cc(F)ccc34)CC2)cc1  serotonine transporter (SERT) receptor (Homo sapiens, UniProt P31645)         35
18  O=S(=O)(NCCCCN1CCN(c2noc3ccccc23)CC1)c1ccc(Cl)cc1  serotonine transporter (SERT) receptor (Homo sapiens, UniProt P31645)         22
19  O=S(=O)(NCCCCN1CCN(c2nsc3ccccc23)CC1)c1cccc2ccccc12  serotonine transporter (SERT) receptor (Homo sapiens, UniProt P31645)         49
20  COc1cccc(S(=O)(=O)NCCCN2CCN(c3nsc4ccccc34)CC2)c1  serotonine transporter (SERT) receptor (Homo sapiens, UniProt P31645)         29
21  O=S(=O)(NCCCN1CCN(c2nsc3ccccc23)CC1)c1ccc(F)c(F)c1  serotonine transporter (SERT) receptor (Homo sapiens, UniProt P31645)         77
22  Cc1[nH]c2ccc(Cl)cc2c1C1=CCN(CCCCNS(=O)(=O)c2ccc(Cl)cc2)CC1  serotonine transporter (SERT) receptor (Homo sapiens, UniProt P31645)         78
23  CC(C)(C)c1ccc(S(=O)(=O)NCCCCN2CCN(c3nsc4ccccc34)CC2)cc1  serotonine transporter (SERT) receptor (Homo sapiens, UniProt P31645)          5
24  O=S(=O)(NCCCN1CCN(c2cccc3c2OCCO3)CC1)c1cccc(F)c1  serotonine transporter (SERT) receptor (Homo sapiens, UniProt P31645)          2
25  O=S(=O)(NCCCCN1CCN(c2cccc3[nH]ccc23)CC1)c1cccc(C(F)(F)F)c1  serotonine transporter (SERT) receptor (Homo sapiens, UniProt P31645)          6
26  O=S(=O)(NCCCN1CCC(c2noc3cc(F)ccc23)CC1)c1cccc2scnc12  serotonine transporter (SERT) receptor (Homo sapiens, UniProt P31645)         31
27  O=S(=O)(NCCCCN1CCN(c2cccc3[nH]ccc23)CC1)c1ccc(F)c(F)c1  serotonine transporter (SERT) receptor (Homo sapiens, UniProt P31645)         12
28  O=S(=O)(NCCCN1CCN(c2nsc3ccccc23)CC1)c1cc2ccccc2s1  serotonine transporter (SERT) receptor (Homo sapiens, UniProt P31645)         87
29  O=c1[nH]c2ccc(S(=O)(=O)NCCCCN3CCN(c4cccc5c4OCCO5)CC3)cc2o1  serotonine transporter (SERT) receptor (Homo sapiens, UniProt P31645)         -9
30  O=S(=O)(NCCCCN1CCN(c2cccc3c2OCCO3)CC1)c1ccc2ccccc2c1  serotonine transporter (SERT) receptor (Homo sapiens, UniProt P31645)         -5
31  Cc1cccc(S(=O)(=O)NCCCCN2CCC(c3noc4cc(F)ccc34)CC2)c1  serotonine transporter (SERT) receptor (Homo sapiens, UniProt P31645)          8
32  O=S(=O)(NCCCCN1CCN(c2nsc3ccccc23)CC1)c1ccc(F)c(Cl)c1  serotonine transporter (SERT) receptor (Homo sapiens, UniProt P31645)         53
33  O=S(=O)(NCCCCN1CCC(c2noc3cc(F)ccc23)CC1)c1ccc(-c2ccccc2)cc1  serotonine transporter (SERT) receptor (Homo sapiens, UniProt P31645)        -14
